assayed_system: BTK-NanoLuc fusion (Homo sapiens, UniProt Q06187)
Construct: host or cells: HEK 293T/17
Sequence (Q06187 whole entry, the tested form may be a part): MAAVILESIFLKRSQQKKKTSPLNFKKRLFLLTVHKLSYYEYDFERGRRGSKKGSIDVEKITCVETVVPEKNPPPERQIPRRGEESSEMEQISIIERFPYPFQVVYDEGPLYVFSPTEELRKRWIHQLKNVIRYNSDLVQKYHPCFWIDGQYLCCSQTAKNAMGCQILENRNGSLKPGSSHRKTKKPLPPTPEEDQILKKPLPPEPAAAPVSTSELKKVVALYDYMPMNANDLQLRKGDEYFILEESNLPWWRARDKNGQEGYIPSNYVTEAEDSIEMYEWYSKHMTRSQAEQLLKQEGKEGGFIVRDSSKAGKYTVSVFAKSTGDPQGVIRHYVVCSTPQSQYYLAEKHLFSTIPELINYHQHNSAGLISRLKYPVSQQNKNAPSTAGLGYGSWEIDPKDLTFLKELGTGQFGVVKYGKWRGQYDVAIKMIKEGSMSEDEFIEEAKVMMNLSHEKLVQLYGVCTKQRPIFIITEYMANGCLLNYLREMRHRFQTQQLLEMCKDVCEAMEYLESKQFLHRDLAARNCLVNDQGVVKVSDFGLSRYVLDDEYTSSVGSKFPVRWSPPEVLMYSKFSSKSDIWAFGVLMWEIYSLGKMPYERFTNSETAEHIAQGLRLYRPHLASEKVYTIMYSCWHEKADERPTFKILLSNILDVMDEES
assay: NanoBRET BTK in-cell target engagement assay
Format: cell-based
setup_conditions: experiment of Fig. 3d; read-out: BTK target engagement IC50
# key: entry, value: IC50
Hi! Could you send only the number? It should be in nM, unit omitted.

[ask] Give the measured IC50 of CC(C)(C)C=C(C#N)C(=O)N1CCCC(n2nc(-c3ccc(Oc4ccccc4)cc3)c3c(N)ncnc32)C1 (centres unmarked) [RC-Ctrl] .
[reply] 47

Field: next molecule
[ask] Given the molecule CN(CCCNC(=O)CNc1cccc2c1C(=O)N(C1CCC(=O)NC1=O)C2=O)C(C)(C)C=C(C#N)C(=O)N1CCC[C@@H](n2nc(-c3ccc(Oc4ccccc4)cc3)c3c(N)ncnc32)C1 (some centres unmarked) [RC-1] , what is its reported IC50?
[reply] 59

###

assayed_system: truncated Cereblon protein (Homo sapiens, UniProt Q96SW2)
Sequence (Q96SW2 318-426): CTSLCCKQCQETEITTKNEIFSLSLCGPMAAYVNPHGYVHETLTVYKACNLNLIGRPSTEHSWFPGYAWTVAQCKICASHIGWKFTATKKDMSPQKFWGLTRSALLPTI
assay: CRBN binding assay (fluorescence quenching)
setup_conditions: truncated Cereblon protein; fluorescence quenching; triplicates
Description: The Kd values of compounds to CRBN were measured based on fluorescence quenching after compounds binding to CRBN. […] All the compounds were dissolved in DMSO (10 mM) as stock solutions. The final drug concentration is 100 nM. […] Fluorescence intensity values for control wells (assay buffer only) were subtracted from each data point prior to analysis. The Kd was calculated using GraphPad Prism with the following equation curve fit. I=I0−If×Kd/P0+Kd+If
metric: pKd
Reminder that pKd means the negative base-10 logarithm of the concentration expressed in mol/L.

[ask] Consider the compound shown here: CN(CCCNC(=O)CNc1cccc2c1C(=O)N(C1CCC(=O)NC1=O)C2=O)C(C)(C)C=C(C#N)C(=O)N1CCC[C@@H](n2nc(-c3ccc(Oc4ccccc4)cc3)c3c(N)ncnc32)C1 (stereo partly shown) What is its recorded pKd?
[reply] 5.38

###

assayed_system: BTK-NanoLuc fusion (Homo sapiens, UniProt Q06187)
Construct: host or cells: HEK 293T/17
assay: NanoBRET BTK in-cell target engagement assay
Assay type: cell-based
setup_conditions: HEK-293 cells, BTK tracer 1.0 µM; Table 1 / Fig. 3c; triplicates; read-out: BTK TE IC50,TE
metric: IC50

Worked examples, 4 compounds total:
[ask] Given the entry CN(CCCNC(=O)CNc1cccc2c1C(=O)N(C1CCC(=O)NC1=O)C2=O)C(C)(C)CC(C#N)C(=O)N1CCC[C@@H](n2nc(-c3ccc(Oc4ccccc4)cc3)c3c(N)ncnc32)C1 (some centres unmarked) , report its measured IC50.
[reply] 930 nM

[ask] Value lookup for IC50; key = CN(CC=CC(=O)N1CCCC(n2nc(-c3ccc(Oc4ccccc4)cc3)c3c(N)ncnc32)C1)CCCNC(=O)CNc1cccc2c1C(=O)N(C1CCC(=O)NC1=O)C2=O (centres unmarked)
[reply] 130 nM

[ask] State the recorded IC50 for this entry: CN(CCCNC(=O)CNc1cccc2c1C(=O)N(C1CCC(=O)NC1=O)C2=O)C(C)(C)C=C(C#N)C(=O)N1CCC[C@@H](n2nc(-c3ccc(Oc4ccccc4)cc3)c3c(N)ncnc32)C1 (some centres unmarked)
[reply] 43 nM

[ask] Given the entry CN(CCCNC(=O)CNc1cccc2c1C(=O)N(C1CCC(=O)NC1=O)C2=O)C(C)(C)/C=C/C(=O)N1CCC[C@@H](n2nc(-c3ccc(Oc4ccccc4)cc3)c3c(N)ncnc32)C1 (some centres unmarked) , report its measured IC50.
[reply] 380 nM

Now consider the entry below.
[ask] Reported IC50 for CN(CCCNC(=O)CNc1cccc2c1C(=O)N(C1CCC(=O)NC1=O)C2=O)CCCC(=O)N1CCCC(n2nc(-c3ccc(Oc4ccccc4)cc3)c3c(N)ncnc32)C1 (centres unmarked) : what is it?
[reply] 1270 nM

###

Listed here: items and their measured activity at 64 pM.
assayed_system: BTK (Homo sapiens, UniProt Q06187)
Sequence (Q06187 whole entry): as the sequence (Q06187 whole entry, the tested form may be a part) above
assay: In vitro BTK kinase assay (PhosphoSens)
Format: biochemical
Design: purchased SignalChem B10-10H-10
setup_conditions: Supplementary Figure 5; drug concentration 64 pM; replicates; read-out: Inhibition(%)
Express your answer in %, writing the number without its unit.

[ask] Write down the reported activity at 64 pM of CC(C)(C)C=C(C#N)C(=O)N1CCCC(n2nc(-c3ccc(Oc4ccccc4)cc3)c3c(N)ncnc32)C1 (stereo not drawn) , test system: BTK (Homo sapiens, UniProt Q06187).
[reply] 109

[ask] BTK (Homo sapiens, UniProt Q06187) / activity at 64 pM / CN(CC=CC(=O)N1CCCC(n2nc(-c3ccc(Oc4ccccc4)cc3)c3c(N)ncnc32)C1)CCCNC(=O)CNc1cccc2c1C(=O)N(C1CCC(=O)NC1=O)C2=O (stereo not drawn) : value?
[reply] 78.1

[ask] Hi! What's the reported activity at 64 pM for CN(CCCNC(=O)CNc1cccc2c1C(=O)N(C1CCC(=O)NC1=O)C2=O)CCCC(=O)N1CCCC(n2nc(-c3ccc(Oc4ccccc4)cc3)c3c(N)ncnc32)C1 (stereo not drawn) on BTK (Homo sapiens, UniProt Q06187)?
[reply] 88

[ask] Return activity at 64 pM measured with BTK (Homo sapiens, UniProt Q06187) given this compound: CN(CCCNC(=O)CNc1cccc2c1C(=O)N(C1CCC(=O)NC1=O)C2=O)C(C)(C)C=C(C#N)C(=O)N1CCC[C@@H](n2nc(-c3ccc(Oc4ccccc4)cc3)c3c(N)ncnc32)C1 (stereo partly drawn)
[reply] 89.4

[ask] GET /values?readout=activity at 64 pM&system=BTK (Homo sapiens, UniProt Q06187)&item= CN1C(=O)CCC(N2C(=O)c3cccc(NCC(=O)NCCCN(C)C(C)(C)C=C(C#N)C(=O)N4CCCC(n5nc(-c6ccc(Oc7ccccc7)cc6)c6c(N)ncnc65)C4)c3C2=O)C1=O (stereo not drawn)
[reply] 109

[ask] // map CCC(=O)N1CCCC(n2nc(-c3ccc(Oc4ccccc4)cc3)c3c(N)ncnc32)C1 (stereo not drawn) to recorded activity at 64 pM (system: BTK (Homo sapiens, UniProt Q06187))
[reply] 94

###

assayed_system: UniProt:Q06187
assay: In vitro BTK kinase assay (PhosphoSens)
Assay type: biochemical
Design: purchased SignalChem B10-10H-10
setup_conditions: Supplementary Figure 5; drug concentration 1600 pM; replicates; read-out: Inhibition(%)
metric: activity at 0.0016 µM (%)
Give the value, in units of %, as a plain number.

[ask] State its activity at 0.0016 µM on UniProt:Q06187: CN(CC=CC(=O)N1CCCC(n2nc(-c3ccc(Oc4ccccc4)cc3)c3c(N)ncnc32)C1)CCCNC(=O)CNc1cccc2c1C(=O)N(C1CCC(=O)NC1=O)C2=O (stereo not drawn) [IRC-1]
[reply] 28

[ask] Requested read-out activity at 0.0016 µM, target or system UniProt:Q06187, entry CC(C)(C)C=C(C#N)C(=O)N1CCCC(n2nc(-c3ccc(Oc4ccccc4)cc3)c3c(N)ncnc32)C1 (stereo not drawn) [RC-Ctrl]
[reply] 64.1

[ask] So what activity at 0.0016 µM did CN(CCCNC(=O)CNc1cccc2c1C(=O)N(C1CCC(=O)NC1=O)C2=O)C(C)(C)C=C(C#N)C(=O)N1CCC[C@@H](n2nc(-c3ccc(Oc4ccccc4)cc3)c3c(N)ncnc32)C1 (stereo partly drawn) [RC-1] get with UniProt:Q06187?
[reply] 55

###

assayed_system: BTK (Homo sapiens, UniProt Q06187)
assay: In vitro BTK kinase assay (PhosphoSens)
Format: biochemical
Parameters: purchased SignalChem B10-10H-10
setup_conditions: Supplementary Figure 5; drug concentration 200000 pM; replicates; read-out: Inhibition(%)
# activity at 0.2 µM listing for each entry below
Value expressed in %; do not type the unit.

Solved cases (5 shown):
[ask] So what does the record say about activity at 0.2 µM for CC(C)(C)C=C(C#N)C(=O)N1CCCC(n2nc(-c3ccc(Oc4ccccc4)cc3)c3c(N)ncnc32)C1 (stereo not drawn) ?
[reply] 1.89

[ask] I am curious: what activity at 0.2 µM value has been reported for CN(CCCNC(=O)CNc1cccc2c1C(=O)N(C1CCC(=O)NC1=O)C2=O)CCCC(=O)N1CCCC(n2nc(-c3ccc(Oc4ccccc4)cc3)c3c(N)ncnc32)C1 (stereo not drawn) ?
[reply] 14

[ask] What measured activity at 0.2 µM goes with CCC(=O)N1CCCC(n2nc(-c3ccc(Oc4ccccc4)cc3)c3c(N)ncnc32)C1 (stereo not drawn) ?
[reply] 9.18

[ask] Which value of activity at 0.2 µM has been reported for CN(CCCNC(=O)CNc1cccc2c1C(=O)N(C1CCC(=O)NC1=O)C2=O)C(C)(C)C=C(C#N)C(=O)N1CCC[C@@H](n2nc(-c3ccc(Oc4ccccc4)cc3)c3c(N)ncnc32)C1 (stereo partly drawn) in the records?
[reply] 2.91

[ask] What activity at 0.2 µM value was documented for this compound, CN(CC=CC(=O)N1CCCC(n2nc(-c3ccc(Oc4ccccc4)cc3)c3c(N)ncnc32)C1)CCCNC(=O)CNc1cccc2c1C(=O)N(C1CCC(=O)NC1=O)C2=O (stereo not drawn) ?
[reply] 0.667

Now look at this entry.
[ask] Would you mind telling me what activity at 0.2 µM value was observed for CN1C(=O)CCC(N2C(=O)c3cccc(NCC(=O)NCCCN(C)C(C)(C)C=C(C#N)C(=O)N4CCCC(n5nc(-c6ccc(Oc7ccccc7)cc6)c6c(N)ncnc65)C4)c3C2=O)C1=O (stereo not drawn) ?
[reply] 3.98
